tested on: rabbit aortal rings preconcentrated with phenylephrine; experiment: Vasorelaxant action in vitro; format: cell-based; conditions: Oryctolagus cuniculus, read-out: IC50 [μM] vasorelaxant action
reported.metric: IC50 (µM)
Give bare numbers, in µM.

Tell me the measured IC50 of Nc1nc(-c2nn(Cc3ccccc3F)c3ncccc23)nc(N)c1N1CCOCC1 [Example 16] , please.
0.2
